- test: Pharmacokinetic profile of a SOMATULINE/DECAPEPTYL composition in beagle dogs (RIA of blood samples)
- Type: in vivo
- experimental.context: dog, in vivo; TIME 20.14 days; beagle dogs; 0.15 ml Example 1 semisolid mixture injected; read-out: concentration in blood samples (RIA)
reported.metric: level at 483.36 h (ng/mL)

>>> meas_value("CC(C)[C@@H]1NC(=O)[C@H](CCCCN)NC(=O)[C@@H](Cc2c[nH]c3ccccc23)NC(=O)[C@H](Cc2ccc(O)cc2)NC(=O)[C@@H](NC(=O)[C@H](N)Cc2ccc3ccccc3c2)CSSC[C@@H](C(=O)N[C@H](C(N)=O)[C@@H](C)O)NC1=O [SOMATULINE, lanreotide]")
1.46

###

- test: Pharmacokinetic profile of a SOMATULINE/DECAPEPTYL composition in beagle dogs (RIA of blood samples)
- Format: in vivo
- experimental.context: dog, in vivo; TIME 69.01 days; beagle dogs; 0.15 ml Example 1 semisolid mixture injected; read-out: concentration in blood samples (RIA)
reported.metric: level at 1656.24 h (ng/mL)

>>> meas_value("CC(C)[C@@H]1NC(=O)[C@H](CCCCN)NC(=O)[C@@H](Cc2c[nH]c3ccccc23)NC(=O)[C@H](Cc2ccc(O)cc2)NC(=O)[C@@H](NC(=O)[C@H](N)Cc2ccc3ccccc3c2)CSSC[C@@H](C(=O)N[C@H](C(N)=O)[C@@H](C)O)NC1=O [SOMATULINE, lanreotide]")
0.16

###

- test: Pharmacokinetic profile of a SOMATULINE/DECAPEPTYL composition in beagle dogs (RIA of blood samples)
- Assay type: in vivo
- experimental.context: dog, in vivo; TIME 52.01 days; beagle dogs; 0.15 ml Example 1 semisolid mixture injected; read-out: concentration in blood samples (RIA)
reported.metric: level at 1248.24 h (ng/mL)

>>> meas_value("CC(C)[C@@H]1NC(=O)[C@H](CCCCN)NC(=O)[C@@H](Cc2c[nH]c3ccccc23)NC(=O)[C@H](Cc2ccc(O)cc2)NC(=O)[C@@H](NC(=O)[C@H](N)Cc2ccc3ccccc3c2)CSSC[C@@H](C(=O)N[C@H](C(N)=O)[C@@H](C)O)NC1=O [SOMATULINE, lanreotide]")
0.21

###

- test: Pharmacokinetic profile of a SOMATULINE/DECAPEPTYL composition in beagle dogs (RIA of blood samples)
- Type: in vivo
- experimental.context: dog, in vivo; TIME 10.06 days; beagle dogs; 0.15 ml Example 1 semisolid mixture injected; read-out: concentration in blood samples (RIA)
reported.metric: level at 241.44 h (ng/mL)

>>> meas_value("CC(C)[C@@H]1NC(=O)[C@H](CCCCN)NC(=O)[C@@H](Cc2c[nH]c3ccccc23)NC(=O)[C@H](Cc2ccc(O)cc2)NC(=O)[C@@H](NC(=O)[C@H](N)Cc2ccc3ccccc3c2)CSSC[C@@H](C(=O)N[C@H](C(N)=O)[C@@H](C)O)NC1=O [SOMATULINE, lanreotide]")
4.88

###

- test: Pharmacokinetic profile of a SOMATULINE/DECAPEPTYL composition in beagle dogs (RIA of blood samples)
- Type: in vivo
- experimental.context: dog, in vivo; TIME 48.36 days; beagle dogs; 0.15 ml Example 1 semisolid mixture injected; read-out: concentration in blood samples (RIA)
reported.metric: level at 1160.64 h (ng/mL)

>>> meas_value("CC(C)[C@@H]1NC(=O)[C@H](CCCCN)NC(=O)[C@@H](Cc2c[nH]c3ccccc23)NC(=O)[C@H](Cc2ccc(O)cc2)NC(=O)[C@@H](NC(=O)[C@H](N)Cc2ccc3ccccc3c2)CSSC[C@@H](C(=O)N[C@H](C(N)=O)[C@@H](C)O)NC1=O [SOMATULINE, lanreotide]")
0.14
